# ASSAY_EXPLANATION: yeast display, Sf9 membrane polyspecificity reagent, FACS + sequencing; frameworks hold sequencing errors
MEASURE_NAME: polyreactivity (PSR sort gate)

Examples with their reported polyreactivity (PSR sort gate) follow.
| MONOMER_SEQUENCE | polyreactivity (PSR sort gate) |
| --- | --- |
| QVQLVESGGGLVQAGGSLRLSCAASGRTFVKYAMGWYRQAPGKERELVAAISWSGGSTYYADSVKGRFTISRDNAKNTVYLQMNSLKPEDTAVYYCAAPSSRGQGRNFDYWGQGTQVTVSS | high polyreactivity |
| QVQLVESGGGLVQAGGSLRLSCAASGLTFAVYAMGVYRQAPGKEREVVAAINWSGGSTSYADSVKGRFTISRDNAKNTVYLQMNSLKPEDTAVYYCAAVPGSYSYWRVWYGYDYWGQGTQVTVSS | high polyreactivity |
| QDQHVESVGGLVQAGGSLRLSIAASVLILWQNAMGWYRQAPGKERELVARITWSGVSTDYADSVKGRFTISRDNAKNTVYFQMNSLKPEDTADYYWAADYNRYSYNYARYSLGQNDYWGQGTQVTVSS | low polyreactivity |
| QVQLVESGGGLVQAGGSLRLSCAASGFTFRENAMGWSRQAPGKERELVAAISSSGGSTYYADSVKGRFTISRDNAKNTVYLQMNSLKPEDTAVYYCAADATLSFDYWGQGTQVTVSS | high polyreactivity |
| QVQLVESGGGLVQAGGSLRISCAASGRIFHGNARGWYRPAPGKERELVAAITSGGRTFYADSVKGRFTISRDNAKNTVYLQLHSLKPEDTAVYYCNAPSIAGYAEYNSHDYWGHGTQVTVSS | high polyreactivity |
| QDQLVESGGGLVQAGGSLRLSCAASGRTFDLYAMGCYRQAPGKERELVAAITKGGGSTYYADSVKGRFTISRDNAKNTVYLQMNSLKPEDTAVYYCAARKYKRIYRISSGIGYYWGQGTQVTVSS | high polyreactivity |
| QVQLVESGGGLVQAGGSLRLSCAASGRIFGPYTKGWYRQAPGKERELVATISYSGSTTYYADSVKGRFTISRDNAKNTVYLQMNSLKPEDTAVYYCAAYYWARRDWGQGTQVTVSS | high polyreactivity |
| QVQLVESGGGLVQAGGSLRLSCAASGFTFSRYTMGWYRQAPGKERELVAAITSVGSTYYADSVKGRFTISRDNAKNTVYLQMNSLKPEDTAVYYCARTYSTWYYYWGQGTQVTVSS | high polyreactivity |
| QVQLVESGGGLVQAGGSLRLSCAASGSTFRYYAMGWYRQAPGKERELVAAISRSGGRTYYADSVKGRFTISRDNAKNTVYLQMNSLKPEDTAVSYCATRGDGSSWGDHDYWGQGTQVTVSS | high polyreactivity |
| QVQLVESGGGLVQAGGSLRLSCAASGFTIADYAMGWYRQAPGKERELVAAITYSGGSTYYADSVKGRFTISRDNAKNTVYLQMNSLKPEDTAVYYWNADYASQSGYDYWGQGTQVTVSS | low polyreactivity |

[ask] If you can, please state the reported polyreactivity (PSR sort gate) value of QVQLVESGGGLVQAGGSLRLSCAASGFTYLYAMGWYRQAPGKESELDAAISYSGGSTYYADSVKGRFTISRDNAKNTVYLQMNSMKPEDTAVYYCAAGYGTVRGVSYDYWGQGTQVTVSS .
[reply] low polyreactivity

---

# ASSAY_EXPLANATION: yeast display, Sf9 membrane polyspecificity reagent, FACS + sequencing; frameworks hold sequencing errors
MEASURE_NAME: polyreactivity (PSR sort gate)

Examples with their reported polyreactivity (PSR sort gate) follow.
| MONOMER_SEQUENCE | polyreactivity (PSR sort gate) |
| --- | --- |
| QVQLVESGGGLVQAGGSLRLSCAASGFTFPYYAMGWYRQAPGKERELVAAISKSGGSTYFADSVKGRFTISRDNAKNTVYLQMNSLKPEDTAVYYCAAQGGSKYRGYYYWGQGTQVTVSS | high polyreactivity |
| QVQLVESGGGLVQAGGSLRLSCAASGRIFTSYAMGWYRQAPGKERELVAAITASGGRTYYADSVKGRFTISRDNAKNTVYLQMNCLKPEDTAVYYCAKLLSFQGDYWGQGTQVTVSS | high polyreactivity |
| QVQLVESGGGLVQAGGSLRLSCAASGSIFVGYVMGWYRQAPGKERELVAAISRSGGRTYYADSVKGRFTISRDNAKNTVYLQMNSLKPEDTAVYYCAADSYTQPYGSLPHKQRYEYWGQGTQVTVSS | low polyreactivity |
| QVQLVESGGGLVQAGASIRLSCAASGSTFYTYDMGRYIQAPGKERELVAVITPRSGTTSYADSVKGRFTISRDYAKNTVYLQMNSLKPEDTAVYYCNVYIPYSYGEYDYWGQGTQVTVSS | high polyreactivity |
| QVQLVESGGGLVQAGGSLRLSCAASGRIFKFNTMGWYRQAPGKERELVAVITLSGGRTFYADSVKGRFTISRDNAKNTVYLQMNSLKPEDTAVYYCAKDFEGYEGGLSRDDYWGQGTQVTVSS | low polyreactivity |

[ask] If you can, please state the reported polyreactivity (PSR sort gate) value of QVQLVESGGGLVQAGGSLRLSCAASGSIFGFNAMGWYRQAPGIERELVAAINNGGSTNYADSVKGRFTISRENANNTVYLQMNSLKPEDTADYYCAARLNYIRRGYWGQGTQVTVSS .
[reply] high polyreactivity

[ask] If you can, please state the reported polyreactivity (PSR sort gate) value of QVQLVESGGGLVQAGGSRRLSCAASGSTFARYPMGWYRQAPGKERELVATITRGGSTNYADSVKGRFTISRDNAKNTVYLQMNSLKPEDTAVYYCNARCGRSPYGYGDYYWGQGTQVTVSS .
[reply] high polyreactivity

[ask] If you can, please state the reported polyreactivity (PSR sort gate) value of QVQLVESGGGLVQAGGSLRLSCAASGITFYGYDMGWYRQAPGKERELFAAISRSGGSTYYADSVKGRFTISRDNAKNTVYLQMNSLKPEDTAVYYCAADKQGYLGRTAFRYYYWGQGTQVTVSS .
[reply] high polyreactivity

[ask] If you can, please state the reported polyreactivity (PSR sort gate) value of QVQLVESGGGLVQAGGSLRLSCAASGFTIGYYAMGWYRQAPGKERELDAAISSGGGSTKYADSVKGRFTISRDNAKNTVYLQMNSLKPVDTAVYYFAKSRLVRGRSSYDYWGQGSQVTVSS .
[reply] high polyreactivity

[ask] If you can, please state the reported polyreactivity (PSR sort gate) value of QVQLVESGGGLVQAGGTLRLSCAPSGSIFRVYTMGWYRQAPGKERELVATISRSGVSTNYADSVKGRFTISRDNAKNTVYLQMNSLKPEDTAVYYCNAYYRTKGGFRFGYWGQGTQVTVSS .
[reply] high polyreactivity

[ask] If you can, please state the reported polyreactivity (PSR sort gate) value of QVQLVESGGGLVQAGGSLRLSCAASGRTFPSNVMGRYIQAHGKERELVAGITWRGGSTYYADSVKGRFTISRDNAKYTVYLQINSLKPEDTAVYYCAVRTQYRRYEYWGHGTQVTVSS .
[reply] high polyreactivity

[ask] If you can, please state the reported polyreactivity (PSR sort gate) value of QVQLVESGGGLVQAGGSLRLSCAASGFIFRKYGMGWYRQAPGKERELVAAIRFTGGSTRYADSVKGRFTISRDNAKNTVYLQMNSLKPEDTAVYYCNADRVYVRGRFTYDYWGQGTQVTVSS .
[reply] low polyreactivity

[ask] If you can, please state the reported polyreactivity (PSR sort gate) value of QVQLVESGGGLVQAGGSLRLSCAASGSIFVHNAMGWSRQAPGKERELVAAITRGGSTYYADSVKGRFTISRDNAKNTVYLQMNSLKPEDTAVYYCAALAAWRWDLYDYWGQGTQVTVSS .
[reply] low polyreactivity

[ask] If you can, please state the reported polyreactivity (PSR sort gate) value of QVQLVESGGGLVQAGGSLRLSCAASGFTFNDYAMGWYRQAPGKERELVAAIDWSGGRTYYADSVKGRFTISRDNAKNTVYLQMNSLKPEDTAVYYCAAVLYSRLYLYRLDYWGQGTQVTVSS .
[reply] low polyreactivity

[ask] If you can, please state the reported polyreactivity (PSR sort gate) value of QVQLVESGGGLVQAGGSLRLSCAASGFTFYKYAMGWYRQAPGKERELVAAISRRGTSTYYADSVKGRFTISRDNAKNTVYLQMNSLKPEDTAVYYCAAEIWSYPAYDYWGQGTQVTVSS .
[reply] high polyreactivity

[ask] If you can, please state the reported polyreactivity (PSR sort gate) value of QVQLVESGGGLVQAGGSLRLSCAASGFTFFSNAMGWYRQAPGKERELVAAITSSGGSTYADSVKGRFTISRDNAKNTVYLQMNSLKPEDTAVYYCAAELYDYGDLYYSEYDYWGQGTQVTVSS .
[reply] low polyreactivity

[ask] If you can, please state the reported polyreactivity (PSR sort gate) value of QVQLVESGGRLVQAGGSLRLSCAASGSIFNRYAMGWYRQAPGKERELVARITNRSGNTYYADSVKGRFTISRANAKNTVYLQMNSLKPEDTAVYYCAATKSLGRYNMDYWGQGTQVTVSS .
[reply] low polyreactivity
